Target: Glucose-6-phosphate 1-dehydrogenase (Plasmodium falciparum)
Sequence (Q25856 whole entry): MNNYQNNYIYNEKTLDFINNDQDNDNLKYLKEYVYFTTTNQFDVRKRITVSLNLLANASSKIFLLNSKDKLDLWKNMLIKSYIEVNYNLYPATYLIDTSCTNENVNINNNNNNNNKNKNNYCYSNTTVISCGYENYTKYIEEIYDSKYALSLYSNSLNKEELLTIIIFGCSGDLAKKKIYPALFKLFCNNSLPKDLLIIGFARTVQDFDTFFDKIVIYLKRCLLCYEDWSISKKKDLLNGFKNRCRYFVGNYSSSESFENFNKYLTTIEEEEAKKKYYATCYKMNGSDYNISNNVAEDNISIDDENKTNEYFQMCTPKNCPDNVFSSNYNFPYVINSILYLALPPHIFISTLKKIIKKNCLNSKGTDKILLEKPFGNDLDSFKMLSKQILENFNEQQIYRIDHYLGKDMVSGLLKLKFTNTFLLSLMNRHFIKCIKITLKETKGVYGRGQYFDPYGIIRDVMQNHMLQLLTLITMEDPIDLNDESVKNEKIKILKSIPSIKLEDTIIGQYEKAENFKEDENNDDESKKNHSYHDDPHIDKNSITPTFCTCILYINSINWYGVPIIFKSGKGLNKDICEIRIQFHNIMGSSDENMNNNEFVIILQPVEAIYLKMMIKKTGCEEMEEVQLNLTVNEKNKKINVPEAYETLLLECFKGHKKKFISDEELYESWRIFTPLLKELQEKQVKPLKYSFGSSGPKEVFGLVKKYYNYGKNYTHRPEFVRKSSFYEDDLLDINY
Experiment: Inhibition of Plasmodium falciparum glucose-6-phosphate dehydrogenase after 2 hrs by resazurin/diaphorasecoupled assay
Property measured: IC50 (µM)
Answer with a number only, understood to be in µM.

The following molecules have reported results that may help.
Bench note: what IC50 did CCN(CC)CCNC(=O)c1ccc2c(c1)NC(=O)/C(=C/c1ccccc1Cl)S2 show?
16.2

Bench note: what IC50 did CCN1CCCC1CNC(=O)c1ccc2c(c1)NC(=O)/C(=C/c1ccc(F)cc1)S2 (stereo not given) show?
1.41

Bench note: what IC50 did O=C1Nc2cc(C(=O)NCCN3CCCCCC3)ccc2S/C1=C\c1ccccc1F show?
46.6

Bench note: what IC50 did CCN1CCCC1CNC(=O)c1ccc2c(c1)NC(=O)/C(=C/c1ccccc1OC)S2 (stereo not given) show?
9.79

Kindly review the next molecule as well.
Bench note: what IC50 did CCN(CC)CCNC(=O)c1ccc2c(c1)NC(=O)/C(=C/c1ccccc1F)S2 (stereo in doubt; 22) show?
6.9
